Provenance of the data: ChEMBL document CHEMBL4725338

Property: remaining at 0.5 h; scope: individual compounds
Experiment: Metabolic stability in human liver microsomes assessed as compound remaining at 0.5 mg/mL incubated for 0.5 hrs
Type: ADME, Microsome
Settings: read-out: Stabilty
# output: bare number, implied unit %

Some compounds with recorded remaining at 0.5 h:
# Smiles Representation, remaining at 0.5 h [%]
measured = [
    ("CNc1cc(C)nc(Nc2ccc(OC)c(C3=CCN(C)CCC3)c2)n1", 76),
    ("CNc1cc(C)nc(Nc2ccc(OC)c(OCCCN3CCCC3)c2)n1", 99),
]

Attention now turns to another entry.
Data request: What measured remaining at 0.5 h goes with CNc1cc(C)nc(Nc2ccc(OC)c(C3=CCNCCC3)c2)n1 ?
Data returned: 96
